Test system: C. glabrata TGL00107
Experiment: microbe, parasite or virus in culture
Type: cell-based
Settings: strain no. 23, TGL00107, parental CST34, FKS mutant
quantity.kind: MIC

molecule	MIC
C#CCOc1ccc([C@H](O)[C@@H](O)[C@@H]2NC(=O)[C@@H]3C[C@@H](O)CN3C(=O)[C@H]([C@@H](C)O)NC(=O)[C@@H](NC(=O)CCCCCCCC[C@@H](C)C[C@@H](C)CC)C[C@@H](O)[C@@H](NCCN)NC(=O)[C@@H]3[C@@H](O)CCN3C(=O)[C@H]([C@H](O)CCN)NC2=O)cc1 [Compound 1a]	>64 µg/mL

Field: next molecule
Query MIC on C. glabrata TGL00107 for CC[C@H](C)C[C@H](C)CCCCCCCCC(=O)N[C@H]1C[C@@H](O)[C@@H](NCCN)NC(=O)[C@@H]2[C@@H](O)CCN2C(=O)[C@H]([C@H](O)CCN)NC(=O)[C@H]([C@H](O)[C@@H](O)c2ccc(OCc3cn(CCCNC(=O)c4ccc(-c5c6ccc(=[N+](C)C)cc-6oc6cc(N(C)C)ccc56)c(C(=O)[O-])c4)nn3)cc2)NC(=O)[C@@H]2C[C@@H](O)CN2C(=O)[C@H]([C@@H](C)O)NC1=O [Compound 1] >64 µg/mL

###

System: C. glabrata BG2
Assay: MIC, broth double dilution
Assay type: cell-based
Settings: strain no. 34, C. glabrata BG2
Procedure: The antifungal activities of compounds 1a, 1 and 2 (collectively: caspofungin derivatives) were compared to that of caspofungin and CSF-BOD using a panel of 49 C. albicans and C. glabrata strains (Tables 1 and 2). […] Minimal inhibitory concentration (MIC) values for all strains were determined using the broth double dilution method and are summarized in FIG. 2 and Table 2. MIC values were determined using the broth double-dilution method. […]
Could you please report measured MIC for the items listed next?
Answers are plain numbers, in mg/L.

Examples from the recorded data:
compound	val
C#CCOc1ccc([C@H](O)[C@@H](O)[C@@H]2NC(=O)[C@@H]3C[C@@H](O)CN3C(=O)[C@H]([C@@H](C)O)NC(=O)[C@@H](NC(=O)CCCCCCCC[C@@H](C)C[C@@H](C)CC)C[C@@H](O)[C@@H](NCCN)NC(=O)[C@@H]3[C@@H](O)CCN3C(=O)[C@H]([C@H](O)CCN)NC2=O)cc1 [Compound 1a]	0.5
CC[C@H](C)C[C@H](C)CCCCCCCCC(=O)N[C@H]1C[C@@H](O)[C@@H](NCCN)NC(=O)[C@@H]2[C@@H](O)CCN2C(=O)[C@H]([C@H](O)CCN)NC(=O)[C@H]([C@H](O)[C@@H](O)c2ccc(OCc3cn(CCCNC(=O)c4ccc(-c5c6ccc(=[N+](C)C)cc-6oc6cc(N(C)C)ccc56)c(C(=O)[O-])c4)nn3)cc2)NC(=O)[C@@H]2C[C@@H](O)CN2C(=O)[C@H]([C@@H](C)O)NC1=O [Compound 1]	1
CC[C@H](C)C[C@H](C)CCCCCCCCC(=O)N[C@H]1C[C@@H](O)[C@@H](NCCNC(=O)CCc2ccc3n2[B-](F)(F)[N+]2=C(C)C=C(C)C2=C3)NC(=O)[C@@H]2[C@@H](O)CCN2C(=O)[C@H]([C@H](O)CCN)NC(=O)[C@H]([C@H](O)[C@@H](O)c2ccc(O)cc2)NC(=O)[C@@H]2C[C@@H](O)CN2C(=O)[C@H]([C@@H](C)O)NC1=O [CSF-BOD]	2

Next, consider the following compound.
Fill blank: measured MIC of the compound CC[C@H](C)C[C@H](C)CCCCCCCCC(=O)N[C@H]1C[C@@H](O)[C@@H](NCCN)NC(=O)[C@@H]2[C@@H](O)CCN2C(=O)[C@H]([C@H](O)CCN)NC(=O)[C@H]([C@H](O)[C@@H](O)c2ccc(OCc3cn(CCCNc4ccc([N+](=O)[O-])c5nonc45)nn3)cc2)NC(=O)[C@@H]2C[C@@H](O)CN2C(=O)[C@H]([C@@H](C)O)NC1=O [Compound 2] is ____. 4

Data origin, for the record: patent US20230173018A1
